Assay: NCI Yeast Anticancer Drug Screen. Data for the cln2 rad14 strain (AID 165);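 also: 0% = growth equal to vehicle treated cultures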
Settings: S. cerevisiae cln2 rad14 strain, at 5.0 µM (retest, dose inferred, filed as 0.5), hits give high values
About 79,000 compounds went through this panel and 15% of them were active in at least one assay; those are over-represented in the sample as a whole.
PARAMETER: growth inhibition (%)

[[record]]
compound = "CC(=O)OCC12CC(O)C(C)=CC1OC1C(O)C(OC(C)=O)C2(C)C12CO2 (configuration not stated)"
parameter = "growth inhibition"
measured = 16

[[record]]
compound = "CC[CH2][Pb]([CH2]CC)([CH2]CC)[NH]S(=O)(=O)c1ccc(C)cc1"
parameter = "growth inhibition"
measured = 98

[[record]]
compound = "Nc1ccccc1O.O.O=C(O)C1[O][Sb][O]C1C(=O)O (configuration not stated)"
parameter = "growth inhibition"
measured = 10

[[record]]
compound = "COC1OC(OC)[CH]([Hg][Cl])C1OC (configuration not stated)"
parameter = "growth inhibition"
measured = 99

[[record]]
compound = "O=C(N/N=C(/CCN1CCCC1)CC(c1ccccc1)c1c(O)c2ccccc2oc1=O)c1ccncc1 (configuration not stated)"
parameter = "growth inhibition"
measured = -1

[[record]]
compound = "O=C1C=Cc2ccccc2C1=O"
parameter = "growth inhibition"
measured = 18

[[record]]
compound = "CN(C)CC1(N)C(=O)NC(=O)NC1=O"
parameter = "growth inhibition"
measured = -1


====

Assay: NCI Yeast Anticancer Drug Screen. Data for the mlh1 rad18 strain (AID 175)
Conditions: S. cerevisiae mlh1 rad18 strain growth inhibition; at 50.0 µM (retest, dose inferred, filed as 5.0)
About 79,000 compounds went through this panel and 15% of them were active in at least one assay; those are over-represented in the sample as a whole. Activity calls are given as the source filed them. Cut-off read from the data, not from the text of the source: active = growth inhibition above about 70%; inactive = the rest.
Possible outcomes: 1 = active, -1 = inactive

[[record]]
molecule = "CC(=O)c1ccccc1O.CO.CO.[Cl][Ta][Cl]"
class_label = -1

[[record]]
molecule = "CC(C)c1ccc(C(C)C)c(C(=O)CN2CCOCC2)c1"
class_label = -1

[[record]]
molecule = "[C-]#[O+].[C-]#[O+].[CH3][Sn]([CH3])[c]1ccccc1.[Fe+5].[c-]1[c-][c-][cH-][c-]1"
class_label = 1

[[record]]
molecule = "O=C(N/N=C(/CCN1CCCC1)CC(c1ccccc1)c1c(O)c2ccccc2oc1=O)c1ccncc1 (stereo not drawn)"
class_label = -1

[[record]]
molecule = "CC[CH2][Pb]([CH2]CC)([CH2]CC)[NH]S(=O)(=O)c1ccc(C)cc1"
class_label = 1

[[record]]
molecule = "O=C1CCC(=O)N1SC(Cl)(Cl)Cl"
class_label = -1

[[record]]
molecule = "COc1c(Cl)[c]([Hg][O]C(C)=O)c(NCC(C)=O)c(OC)[c]1[Hg][O]C(C)=O"
class_label = 1

[[record]]
molecule = "CC(=O)NC1=C(N(CCCl)CCCl)C(=O)c2ccccc2C1=O"
class_label = 1

[[record]]
molecule = "CCOP(=O)(OCC)/C(C#N)=C/c1ccc(Br)cc1"
class_label = 1

[[record]]
molecule = "CC(=O)[O][Sn]([c]1ccccc1)([c]1ccccc1)[c]1ccccc1"
class_label = 1

[[record]]
molecule = "O=[N+]([O-])/C=C/c1ccc(Cl)cc1"
class_label = 1

[[record]]
molecule = "CCCCCCCCCC(=O)[O][Hg][c]1ccccc1"
class_label = 1

[[record]]
molecule = "C[N+](C)(C)CC1CCCC1=O (stereo not drawn)"
class_label = 1

[[record]]
molecule = "CN(C)C(=S)[S][Hg][c]1ccccc1"
class_label = 1

[[record]]
molecule = "O=P1(N2CCOCC2)OC(c2ccccc2)=CCN1c1ccccc1 (stereo not drawn)"
class_label = -1

[[record]]
molecule = "[Cl][Pt+2][Cl].[NH-]c1ccc([N+](=O)[O-])cc1[NH-]"
class_label = 1

[[record]]
molecule = "C#CC[As+](c1ccccc1)(c1ccccc1)c1ccccc1"
class_label = 1

[[record]]
molecule = "CC12CCCCC1C(=O)C2(Cl)Cl (stereo not drawn)"
class_label = -1

[[record]]
molecule = "ClCCN(CCCl)c1ccc(C2N(Cc3ccc(Cl)cc3)CCN2Cc2ccc(Cl)cc2)cc1"
class_label = 1

[[record]]
molecule = "CC(=O)OC1CCC2C3CCC4C(F)C(=O)C(F)(F)CC4(C)C3CCC12C (stereo not drawn)"
class_label = 1

[[record]]
molecule = "C[C@@H]1C[C@H]2CC[C@H](O2)[C@H](C)C(=O)O[C@@H](C)C[C@@H]2CC[C@@H](O2)[C@@H](C)C(=O)O[C@H](C)C[C@H]2CC[C@H](O2)[C@H](C)C(=O)O[C@@H](C)C[C@@H]2CC[C@@H](O2)[C@@H](C)C(=O)O1"
class_label = 1

[[record]]
molecule = "CC([CH2][Hg][Cl])c1ccccc1 (stereo not drawn)"
class_label = 1

[[record]]
molecule = "CCOP(=O)(OCC)C(O)c1ccccc1Cl (stereo not drawn)"
class_label = -1

[[record]]
molecule = "COc1cc(/C=C/[N+](=O)[O-])cc(OC)c1OC"
class_label = 1

[[record]]
molecule = "N#CC(C#N)=NNc1cccc(Cl)c1Cl"
class_label = -1

[[record]]
molecule = "COc1ccc(/C=C\\[N+](=O)[O-])cc1OC"
class_label = 1

[[record]]
molecule = "S=C=NC/C(Cl)=C/Cl"
class_label = -1

[[record]]
molecule = "CCOc1ccc(CCNC)c2c1ccc1ccc(OC)c(O)c12"
class_label = 1

[[record]]
molecule = "CCCCCCCCCCCCCCCCOC[C@@H](COC(c1ccccc1)(c1ccccc1)c1ccccc1)O[P+](=S)OC (stereo partly drawn)"
class_label = -1

[[record]]
molecule = "C[CH2][Sn]([Br])([CH2]C)[c]1ccccc1CN(C)C"
class_label = 1

[[record]]
molecule = "O=C(CBr)c1ccncc1"
class_label = 1

[[record]]
molecule = "C1=C[N-]c2c3c(ccc2=C1)=CC=C[N-]3.C1=C[N-]c2c3c(ccc2=C1)=CC=C[N-]3.F[P-](F)(F)(F)(F)F.[Cu+2]"
class_label = 1

[[record]]
molecule = "[pH]1p2[pH]p3p1p3[pH]2.c1cc[c]([Ge]([c]2ccccc2)[c]2ccccc2)cc1.c1cc[c]([Ge]([c]2ccccc2)[c]2ccccc2)cc1.c1cc[c]([Ge]([c]2ccccc2)[c]2ccccc2)cc1"
class_label = 1

[[record]]
molecule = "COCCOCCOC(=O)CBr"
class_label = 1

[[record]]
molecule = "O=C(O)C(F)(F)C(F)(F)C(=O)O"
class_label = -1

[[record]]
molecule = "COc1ccc(C[C@H]2NC[C@H](O)[C@H]2OC(C)=O)cc1"
class_label = 1

[[record]]
molecule = "N=C(N)c1ccc(NN=Nc2cccc3c2Oc2ccccc2O3)cc1"
class_label = 1

[[record]]
molecule = "CC(=O)[O-].O=[N+]([O-])c1ccc([O-])c(C=NCCN=Cc2cc([N+](=O)[O-])ccc2[O-])c1.[Mn+3]"
class_label = 1

[[record]]
molecule = "O=C1[O][Hg][c]2c1cccc2[N+](=O)[O-]"
class_label = 1

[[record]]
molecule = "O=C1C=CC(=O)C(Br)C1Br (stereo not drawn)"
class_label = -1

[[record]]
molecule = "CC1=CC(=C2C=CC(=[N+](C)C)C=C2)C=C(C)S1"
class_label = 1

[[record]]
molecule = "Clc1ccccc1C#[C][Hg][C]#Cc1ccccc1Cl"
class_label = 1

[[record]]
molecule = "Cc1ccc(S(=O)(=O)N=S(=O)(CCCl)CCCl)cc1"
class_label = 1


====

Readings of growth inhibition for the listed molecules
Experiment: NCI Yeast Anticancer Drug Screen. Data for the mec2-1 strain (AID 157)
Conditions: S. cerevisiae mec2-1 strain, at 5.0 µM (retest, dose inferred, filed as 0.5), hits give high values
About 79,000 compounds went through this panel and 15% of them were active in at least one assay; those are over-represented in the sample as a whole.
PARAMETER: growth inhibition (%)

[[record]]
molecule = "CC(=O)C(CN(C)Cc1ccccc1)C(c1ccccc1)c1c(O)c2ccccc2oc1=O (configuration not stated)"
measured = 1

[[record]]
molecule = "CC1Oc2cc3c(-c4c(O)cc(O)c5c(O)c6c(cc45)OC(C)C(C)C6=O)c(O)cc(O)c3c(O)c2C(=O)C1C (configuration not stated)"
measured = -10

[[record]]
molecule = "O=C(N/N=C/c1cc(Br)cc(Br)c1[O-])c1ccccc1O.O=C(N/N=C/c1cc(Br)cc(Br)c1[O-])c1ccccc1O.[Co+2]"
measured = 95

[[record]]
molecule = "O=C1CCCC1Cl (configuration not stated)"
measured = -2

[[record]]
molecule = "COS(=O)(=O)c1ccccc1"
measured = 0

[[record]]
molecule = "CC(=O)OC1CCC2C3CCC4C(F)C(=O)C(F)(F)CC4(C)C3CCC12C (configuration not stated)"
measured = -12

[[record]]
molecule = "ClC1CCCCC1[Se](Cl)(Cl)C1CCCCC1Cl (configuration not stated)"
measured = 45

[[record]]
molecule = "COC1CC2C=C(C)/C=C/C=C/C(=O)NC(c3ccccc3)C/C=C/CCC(O)CC(=O)C2=C1O (configuration not stated)"
measured = 98

[[record]]
molecule = "CCC[CH2][Sn]1([CH2]CCC)[O]CCN2CCN(CC[O]1)CC2"
measured = -4

[[record]]
molecule = "COc1cc(/C=C(/C)[N+](=O)[O-])c([N+](=O)[O-])cc1OC"
measured = 2

[[record]]
molecule = "CC(C)(C)[Si](OC(=O)N(CCCl)CCCl)(c1ccccc1)c1ccccc1"
measured = 10

[[record]]
molecule = "O=C1C(C(Nc2ccccc2)c2ccccc2)=C([O-])c2ccccc21.O=C1C(C(Nc2ccccc2)c2ccccc2)=C([O-])c2ccccc21.[Ni+2] (configuration not stated)"
measured = 33

[[record]]
molecule = "CC(=O)OC[C@]12C[C@H](OC(=O)CC(C)C)C(C)=C[C@H]1OC1[C@H](O)[C@@H](OC(C)=O)[C@@]2(C)[C@@]12CO2"
measured = 98

[[record]]
molecule = "CC(C)=CCC/C(C)=C/CC/C(C)=C/Cc1c(O)c2ccccc2oc1=O"
measured = 5

[[record]]
molecule = "C[C@]12Cc3cn4ncnc4nc3CC1CC[C@@H]1[C@@H]2CC[C@]2(C)C(O)CC[C@@H]12 (some centres not stated)"
measured = 24

[[record]]
molecule = "O=S(=O)(F)c1ccc(Cl)cc1"
measured = 4

[[record]]
molecule = "CCC[CH2][Sn]([CH2]CCC)[S]CC(N)C(=O)O (configuration not stated)"
measured = 67

[[record]]
molecule = "C[C@@H]1C[C@H]2CC[C@H](O2)[C@H](C)C(=O)O[C@@H](C)C[C@@H]2CC[C@@H](O2)[C@@H](C)C(=O)O[C@H](C)C[C@H]2CC[C@H](O2)[C@H](C)C(=O)O[C@@H](C)C[C@@H]2CC[C@@H](O2)[C@@H](C)C(=O)O1"
measured = 78

[[record]]
molecule = "CC(=O)[O-].CC(=O)[O-].O=C(N/N=C/c1cc(Cl)cc(Cl)c1[OH2+])c1ccncc1.[Zn+2]"
measured = -1

[[record]]
molecule = "CC1=C(N2CC2)C(=O)c2nc3n(c2C1=O)CCC3OC(=O)CCl (configuration not stated)"
measured = 6

[[record]]
molecule = "Oc1c(Cl)cc(Cl)c2ccccc12.[Cu+2]"
measured = -34

[[record]]
molecule = "COC12C(COC(N)=O)C3=C(C(=O)C(C)=C(N)C3=O)N1CC1C2N1C (configuration not stated)"
measured = 16

[[record]]
molecule = "C[CH2][Sn]1([CH2]C)[O]C(=O)CC(=O)[O]1"
measured = 10

[[record]]
molecule = "CCN1CCC(O)(c2ccc(O)cc2)C(C(=O)c2ccc(O)cc2)C1 (configuration not stated)"
measured = -9

[[record]]
molecule = "O=C(O)C(CSC(c1ccccc1)c1ccccc1)NC(=O)C(c1ccccc1)c1ccccc1 (configuration not stated)"
measured = 11

[[record]]
molecule = "NCCNCCN1CC1"
measured = 1

[[record]]
molecule = "COC12c3c(C)cc(O)c4c(=O)occ(c34)C(=O)C1C13COC(=O)c4c(O)cc(C)c(c41)C(=O)C2C3OC(C)=O (configuration not stated)"
measured = 32

[[record]]
molecule = "OC1CC([CH2][Hg][I])OC([CH2][Hg][I])C1 (configuration not stated)"
measured = 100

[[record]]
molecule = "Clc1cc[c]([Tl][c]2ccc(Cl)cc2)cc1"
measured = 97

[[record]]
molecule = "CC(C=O)[Se]c1ccccc1 (configuration not stated)"
measured = 8

[[record]]
molecule = "O=C(O)C1CC2c3ccccc3C1([N+](=O)[O-])c1ccccc12 (configuration not stated)"
measured = -1

[[record]]
molecule = "O=C1C=CC(=O)C(Br)C1Br (configuration not stated)"
measured = -8

[[record]]
molecule = "CS(=N)(=O)CCC(N)C(=O)O (configuration not stated)"
measured = -50

[[record]]
molecule = "O=C1C(C(Nc2ccccc2)c2ccccc2)=C([O-])c2ccccc21.O=C1C(C(Nc2ccccc2)c2ccccc2)=C([O-])c2ccccc21.[Co+2] (configuration not stated)"
measured = 42

[[record]]
molecule = "O=[N+]([O-])/C=C/c1ccc([N+](=O)[O-])cc1"
measured = 81

[[record]]
molecule = "[C-]#[O+].[C-]#[O+].[CH3][Sn]([CH3])[c]1ccccc1.[Fe+5].[c-]1[c-][c-][cH-][c-]1"
measured = 4

[[record]]
molecule = "CC(CCc1ccccc1)NC(C)C(O)c1ccc(O)cc1 (configuration not stated)"
measured = 4

